Test system: K98450-129-R-PDC complex spheroid growth, percent test/control;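 note: luminescence used as a proxy for viable cell amount; spheroids exposed to agents for seven days before the viability readout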
PROTOCOL: Anticancer human tumor K98450-129-R-PDC patient-derived colon adenocarcinoma cell line growth inhibition [RAS]
APPLIED CONDITIONS: second compound 0.00949 µM; first compound 3.16 µM; active compounds read low
QUANTITY KIND: viability, T/C (%)
Response body: numeric value in %, unit text excluded.

COMPOUND | MEASURED NUMBER
CC(C)NCC(C(=O)N1CCN(c2ncnc3c2C(C)CC3O)CC1)c1ccc(Cl)cc1 (configuration not stated) + CCn1c(-c2cccnc2C(C)OC)c2c3cc(ccc31)N1CCOC(CC(NC(=O)C(C(C)C)N(C)C(=O)C3(F)CCN(C(=O)C#CC(C)(C)N(C)C)CC3)C(=O)N3CCCC(N3)C(=O)OCC(C)(C)C2)C1 | 50.8

Fill blank: measured viability, T/C of the compound CC1(O)CCCC1n1c(=O)c(C(F)F)cc2cnc(NC3CCN(S(C)(=O)=O)CC3)nc21 (configuration not stated) + CCn1c(-c2cc(N3CCN(C)CC3)cnc2C(C)OC)c2c3cc(ccc31)-c1csc(n1)CC(NC(=O)C1CC1C)C(=O)N1CCCC(N1)C(=O)OCC(C)(C)C2 is ____.
50.5
